// reported IC50 for each item listed
- Tested on: OVCAR3 cells
- assay.text: Cell proliferation activity test (CyQUANT Direct)
- Format: cell-based
- measurement.setup: Homo sapiens, OVCAR-3, 72 h, 3 days, 0.2% DMSO, CyQUANT fluorescence
reported.endpoint: IC50 (nM)

compound	unit.symbol	test.value
Cc1cc2nc(n1)N1CCC(F)(F)C(/C=C/CC3CCN(CC3)c3cc(NS(=O)(=O)CCO)c4c(c3C(=O)N2)CCC4(F)F)C1 (stereo not drawn)	nM	24
Cc1cc2nc(n1)N1CCC(F)(F)C(C=CCC3=CC=C(S3)c3cc(NS(=O)(=O)CCO)ccc3C(=O)N2)C1 (single isomer, unassigned) [Example 57A]	nM	114
Cc1cc2nc(n1)N1CCC(F)(F)C(/C=C\c3csc(c3)-c3cc(NS(=O)(=O)CCO)ccc3C(=O)N2)C1 (stereo not drawn)	nM	481
Cc1cc2nc(n1)N1CCC(F)(F)C(C=CCC3=CC=C(S3)c3cc(NS(=O)(=O)CCO)ccc3C(=O)N2)C1 (stereo not drawn) [Example 57]	nM	119
Cc1cc2nc(n1)N1CCC(F)(F)C(/C=C\Cc3ccc(cc3)-c3cc(NS(=O)(=O)CCO)ccc3C(=O)N2)C1 (stereo not drawn)	nM	136
Cc1cc2nc(n1)N1CCC(F)(F)C(/C=C/CC3CCN(CC3)c3cc(NS(=O)(=O)CCO)c4c(c3C(=O)N2)CCNC4=O)C1 (stereo not drawn)	nM	96

* * *

- System: HT29 cells
- assay.text: CyQuant cell proliferation activity test
- Format: cell-based
- measurement.setup: HT29 at 2000 cells per well, 3 days, 0.2% DMSO, XLFIT, read-out: HT-29 IC50
- Method: Materials and Cells: HT29 cells were purchased from Nanjing Cobioer Biosciences Co., Ltd.; RPMI-1640 medium, fetal bovine serum, Trypsin-EDTA (0.25%), 96-well plates, and CyQuant reagents were purchased from ThermoFisher (USA); DMSO was purchased from SIGMA (USA). […] Cell Proliferation Activity Test: CyQuant reagent was used to detect the proliferation inhibitory activity of compounds on HT29 cells. […] The plates were read by Envision, and IC50 was calculated using XLFIT.
pIC50: −log10 of the molar value.
Think of 7 as a floor: if pIC50 stands on it or above, it is Satisfied; beneath it, Not satisfied.

compound	measurement.target	assigned.class
Cc1cc2nc(n1)N1CCC(F)(F)C(/C=C\CC3CCN(CC3)c3cc(NS(=O)(=O)CCO)c4ccccc4c3C(=O)N2)C1 (single isomer, unassigned) [Example 1B]	HT29 cells	Satisfied
Cc1cc2nc(n1)N1CCC(F)(F)C(C=CCC3CCN(CC3)c3cc(NS(=O)(=O)CCO)c4c(c3C(=O)N2)CCC4=O)C1 (single isomer, unassigned) [Example 2C]	HT29 cells	Satisfied
Cc1cc2nc(n1)N1CCC(F)(F)C(/C=C/CC3CCN(CC3)c3cc(NS(=O)(=O)CCO)c4ccccc4c3C(=O)N2)C1 (single isomer, unassigned) [Example 1C]	HT29 cells	Not satisfied
Cc1cc2nc(n1)N1CCC(F)(F)C(CCCc3ccc(cc3)-c3cc(NS(=O)(=O)CCO)ccc3C(=O)N2)C1 (single isomer, unassigned) [Example 46B]	HT29 cells	Satisfied
Cc1cc2nc(n1)N1CCC(F)(F)C(C=CCC3CCN(CC3)c3cc(NS(=O)(=O)CCO)c4c(c3C(=O)N2)CCC4=O)C1 (single isomer, unassigned) [Example 2B]	HT29 cells	Not satisfied
Cc1cc2nc(n1)N1CCC(F)(F)C(C=CCC3CCN(CC3)c3cc(NS(=O)(=O)CCO)c4c(c3C(=O)N2)CCC4=O)C1 (single isomer, unassigned) [Example 2A]	HT29 cells	Satisfied
COc1cc2nc(n1)N1CCC(F)(F)C(CCCc3ccc(cc3)-c3cc(NS(=O)(=O)CCO)ncc3C(=O)N2)C1 (single isomer, unassigned) [Example 56B]	HT29 cells	Not satisfied
Cc1cc2nc(n1)N1CCC(F)(F)C(C=CCC3CCN(CC3)c3cc(NS(C)(=O)=O)c4c(c3C(=O)N2)CCC4=O)C1 (centres unmarked) [Example 19]	HT29 cells	Satisfied

* * *

Listed compounds paired with reported IC50
- System: HT29 cells
- assay.text: CyQuant cell proliferation activity test
- Format: cell-based
- measurement.setup: HT29 at 2000 cells per well, 3 days, 0.2% DMSO, XLFIT, read-out: HT-29 IC50
reported.endpoint: IC50

compound	measurement.target	test.value
CCS(=O)(=O)Nc1cc2c(c3c1C(=O)CC3)C(=O)Nc1cc(C)nc(n1)N1CCC(F)(F)C(C=CCC3CCN2CC3)C1 (stereo not drawn)	HT29 cells	41 nM
Cc1cc2nc(n1)N1CCC(F)(F)C(/C=C\CC3CCN(CC3)c3cc(NS(=O)(=O)CCO)c4ccccc4c3C(=O)N2)C1 (single isomer, unassigned) [Example 1A]	HT29 cells	2790 nM
Cc1cc2nc(n1)N1CCC(F)(F)C(C=CCC3CCN(CC3)c3cc(NS(=O)(=O)CCO)c4c(c3C(=O)N2)CCC4=O)C1 (single isomer, unassigned) [Example 2D]	HT29 cells	679 nM

* * *

- measurement.target: Human KIF18A (amino acid sequence 1-417) (Homo sapiens, UniProt Q8NI77)
- Construct: purchased Viva Biotech (Shanghai) Ltd
- Sequence (Q8NI77 1-417): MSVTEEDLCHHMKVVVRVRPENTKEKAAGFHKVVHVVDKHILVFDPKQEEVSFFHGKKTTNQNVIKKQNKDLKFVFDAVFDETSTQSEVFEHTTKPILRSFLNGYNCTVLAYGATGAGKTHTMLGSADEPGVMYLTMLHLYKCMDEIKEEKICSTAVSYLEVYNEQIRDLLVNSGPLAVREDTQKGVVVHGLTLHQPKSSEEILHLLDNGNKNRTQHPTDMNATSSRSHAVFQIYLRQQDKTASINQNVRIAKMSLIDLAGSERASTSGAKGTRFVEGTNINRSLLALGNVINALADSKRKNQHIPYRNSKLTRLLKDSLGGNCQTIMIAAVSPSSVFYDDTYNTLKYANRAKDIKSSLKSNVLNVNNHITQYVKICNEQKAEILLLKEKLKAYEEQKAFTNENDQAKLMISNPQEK
- assay.text: Enzymatic activity test (ADP-Glo, microtubule-stimulated ATPase)
- Format: biochemical
- measurement.setup: 60 µg/mL microtubules, 25 µM ATP, 2.5 nM KIF18A protein, 120 min at ambient temperature, chemiluminescence; read-out: KIF18A IC50
Parameter IC50: see the listing below.
reported.endpoint: IC50

compound	reported.endpoint	test.value
COc1cc2nc(n1)N1CCC(F)(F)C(CCCc3ccc(cc3)-c3cc(NS(=O)(=O)CCO)ncc3C(=O)N2)C1 (single isomer, unassigned) [Example 56B]	IC50	9 nM
Cc1cc2nc(n1)N1CCC(F)(F)[C@@H](CCCC3CCN(CC3)c3cc(NS(=O)(=O)CCO)c4c(c3C(=O)N2)CCC4=O)C1 [Example 10]	IC50	43 nM
Cc1cc2nc(n1)N1CCC(F)(F)[C@@H](CCCC3CCN(CC3)c3cc(NS(=O)(=O)CCO)ccc3-n3cc-2nn3)C1	IC50	350 nM
Cc1cc2nc(n1)N1CCC(F)(F)C(C=CCC3CCN(CC3)c3cc(NS(=O)(=O)CCO)c4c(c3C(=O)N2)CCC4=O)C1 (single isomer, unassigned) [Example 2B]	IC50	3550 nM
COc1cc2nc(n1)N1CCC(F)(F)C(/C=C\C3=CC=C(S3)c3cc(NS(=O)(=O)CCO)ccc3C(=O)N2)C1 (stereo not shown)	IC50	40 nM
Cc1cc2nc(n1)N1CCC(F)(F)C(/C=C\CC3CCN(CC3)c3cc(NS(=O)(=O)CCO)c4ccccc4c3C(=O)N2)C1 (single isomer, unassigned) [Example 1A]	IC50	> 3000 nM
Cc1cc2nc(n1)N1CCC(F)=C(/C=C\CC3CCN(CC3)c3cc(NS(=O)(=O)CCO)c4c(c3C(=O)N2)CCC4=O)C1	IC50	566 nM
Cc1cc2nc(n1)N1CCC(F)(F)C(/C=C/CC3CCN(CC3)c3cc(NS(=O)(=O)CCO)c(C(=O)C4CC4)cc3-n3cc-2nn3)C1 (stereo not shown)	IC50	1700 nM
Cc1cc2nc(n1)N1CCC(F)(F)C(/C=C\C3=CC=C(S3)c3cc(NS(=O)(=O)CCO)ccc3C(=O)N2)C1 (stereo not shown)	IC50	35 nM
Cc1cc2nc(n1)N1CCC(F)(F)C(CCCc3ccn(c(=O)c3)-c3cc(NS(=O)(=O)CCO)ccc3C(=O)N2)C1 (stereo not shown)	IC50	555 nM
Cc1cc2nc(n1)N1CCC(F)(F)C(/C=C\CC3CCN(CC3)c3cc(NS(=O)(=O)CCO)c4c(c3C(=O)N2)OCC4=O)C1 (stereo not shown) [Example 14B]	IC50	307 nM
COc1cc2nc(n1)N1CCC(F)(F)C(CCCc3ccc(cc3)-c3cc(NS(=O)(=O)CCO)ccc3C(=O)N2)C1 (single isomer, unassigned) [Example 51B]	IC50	144 nM
Cc1cc2nc(n1)N1CCC(F)(F)C(/C=C/CCC3CCN(CC3)c3cc(NS(=O)(=O)CCO)ccc3-n3cc-2nn3)C1 (racemic)	IC50	352 nM
Cc1cc2nc(n1)N1CCC(F)(F)C(/C=C\CC3CCN(CC3)c3cc(NS(=O)(=O)CCO)ccc3-c3cn-2nn3)C1 (single isomer, unassigned) [Example 84B]	IC50	258 nM
CCS(=O)(=O)Nc1cc2c(c3c1C(=O)CC3)C(=O)Nc1cc(C)nc(n1)N1CCC(F)(F)C(C=CCC3CCN2CC3)C1 (stereo not shown)	IC50	67 nM
COc1cc2nc(n1)N1CCC(F)(F)C(CCCC3=CC=C(S3)c3cc(NS(=O)(=O)CCO)ccc3C(=O)N2)C1 (stereo not shown)	IC50	135 nM
Cc1cc2nc(n1)N1CCC(F)=C(/C=C\CC3CCN(CC3)c3cc(NS(=O)(=O)CCO)ccc3-n3cc-2nn3)C1	IC50	1020 nM
CON(C)C(=O)c1cc2c(cc1NS(=O)(=O)CCO)N1CCC(C/C=C/C3CN(CCC3(F)F)c3nc(C)cc(n3)-c3cn-2nn3)CC1 (stereo not shown)	IC50	274 nM
Cc1cc2nc(n1)N1CCC(F)(F)C(C=CCC3CCN(CC3)c3cc(NS(=O)(=O)CCO)c4c(c3C(=O)N2)CCC4=O)C1 (single isomer, unassigned) [Example 2A]	IC50	35 nM
Cc1cc2nc(n1)C1CN(/C=C/CC3CCN(CC3)c3cc(NS(=O)(=O)CCO)ccc3-c3cn-2nn3)CCC1(F)F (single isomer, unassigned) [Example 84C]	IC50	186 nM
Cc1cc2nc(n1)N1CCC(F)(F)C(C=CCC3CCN(CC3)c3cc(NS(C)(=O)=O)c4c(c3C(=O)N2)CCC4=O)C1 (stereo not shown)	IC50	73 nM
Cc1cc2nc(n1)N1CCC(F)(F)C(CCCc3csc(c3)-c3cc(NS(=O)(=O)CCO)ccc3C(=O)N2)C1 (stereo not shown)	IC50	155 nM
Cc1cc2nc(n1)N1CCC(F)(F)C(CCCc3ccc(nc3)-c3cc(NS(=O)(=O)CCO)ccc3C(=O)N2)C1 (stereo not shown)	IC50	187 nM
Cn1c2nc(cc1=O)NC(=O)c1c(cc(NS(=O)(=O)CCO)c3c1CCC3=O)N1CCC(C/C=C\C3CN2CCC3(F)F)CC1 (stereo not shown)	IC50	264 nM
COc1cc2nc(n1)N1CCC(F)(F)C(CCCc3c(F)cc(cc3F)-c3cc(NS(=O)(=O)CCO)ccc3C(=O)N2)C1 (stereo not shown)	IC50	223 nM

Entry source: patent EP4772509A1
